In this section, each of the compounds is paired with its reported IC50.
- System: RNA polymerase II Serine 5 phosphorylation (Rpb1 CTD), downstream substrate of CDK7
- MEASUREMENT DESCRIPTION: Imaging-based cellular RNA PolII Ser5 phosphorylation assay in A549 cells
- Type: cell-based, human
- SETUP CONDITIONS: Homo sapiens, A549, 3 h, challenged with compound for 3 hours, read-out: pRNA polII Ser5 (A549) pIC50 (converted)

[2H]C([2H])([2H])N1CC[C@@H](C(=O)N2Cc3nc(NCc4ccn(C)n4)ncc3C[C@H]2C)[C@H](c2cccc(C)c2)C1 (single isomer, unassigned); ~26.9 nM
Cc1cccc([C@H]2CN(C)CC[C@@H]2C(=O)N2Cc3nc(NC4CCOCC4)ncc3C[C@H]2C)c1 [Compound 93]; ~67.6 nM
C[C@@H]1Cc2cnc(NC3CCOCC3)nc2CN1C(=O)[C@@H]1CCN(C)C[C@H]1C1CC1 (relative stereo); > 10000 nM
C[C@@H]1Cc2cnc(N[C@H](C)c3ccccc3)nc2CN1C(=O)[C@H]1CCN(C)C[C@@H]1c1ccccc1; ~14.1 nM
C[C@@H]1Cc2cnc(NC3CCN(S(=O)(=O)C4CC4)CC3)nc2CN1C(=O)[C@H]1CCN(C)C[C@@H]1c1ccccc1; > 10000 nM
CN1CC[C@H](C(=O)N2Cc3nc(NCc4ccn(C)n4)ncc3CC2(C)C)[C@@H](c2ccccc2)C1 (single isomer, unassigned); ~4270 nM
C[C@@H]1Cc2cnc(NC3CCOCC3)nc2CN1C(=O)[C@H]1CCN(C)C[C@@H]1c1ccc(Cl)cc1 (relative stereo); ~81.3 nM

## Task Need IC50, item C[C@@H]1Cc2cnc(NC3CCOCC3)nc2CN1C(=O)[C@@H]1CC[C@H](N(C)C)CN1c1ccccc1 (mixture of isomers)
## Result > 10000 nM

###

In this section, each of the compounds is paired with its reported IC50.
- Tested on: RNA polymerase II Serine 5 phosphorylation (Rpb1 CTD), downstream substrate of CDK7
- MEASUREMENT DESCRIPTION: Imaging-based cellular RNA PolII Ser5 phosphorylation assay in A549 cells
- Type: cell-based, human
- SETUP CONDITIONS: Homo sapiens, A549, 3 h, challenged with compound for 3 hours, read-out: pRNA polII Ser5 (A549) pIC50 (converted)
- Description: Dosing curves were fitted using the following equation to obtain IC50: Y=Bottom+(Top−Bottom)/(1+10^((log IC50−X)*Hill slope)) where X=log10 of the compound concentration; top and bottom can be defined by PC and NC respectively. […] RNA Polymerase II Serine 5 phosphorylation was detected using a specific rabbit Phospho-Rpb1 CTD (Ser5) antibody. […] After removing blocking buffer 20 μl 1/1000 primary antibody rabbit. […] Plates were read with Opera Phenix (Perkin Elmer) with 10× air objective. […]

Recorded results for 2 compounds are shown here.
Cc1cccc([C@@H]2CN(C)CC[C@H]2C(=O)N2Cc3nc(NCc4ccn(C)n4)ncc3C[C@H]2C)c1 (relative stereo); ~0.0275 µM
C[C@@H]1Cc2cnc(NCc3ccn(C)n3)nc2CN1C(=O)[C@H]1CCN(C)C[C@@H]1c1cccc(C(F)(F)F)c1 (relative stereo); ~0.0417 µM

Pending compound:
## Task Look up IC50 with RNA polymerase II Serine 5 phosphorylation (Rpb1 CTD), downstream substrate of CDK7 for this compound: "Cc1cccc([C@H]2CN(C)CC[C@@H]2C(=O)N2Cc3nc(Nc4ccnc(C)c4)ncc3C[C@H]2C)c1"
## Result ~0.0204 µM
